- Tested on: CAKI-1 renal
- EXPERIMENT: NCI tumour cell line growth inhibition, 48 h

{"COMPOUND": "COC(=O)C1C(OC(=O)c2ccccc2)CC2CCC1N2C(N)=O (configuration not stated)", "ASSAYED_SYSTEM": "CAKI-1 renal", "TGI": "> 100 µM"}
{"COMPOUND": "COc1cc(C(=O)C/C(CCC(=O)Nc2ccccc2[N+](=O)[O-])=N\\NC(=O)CC#N)ccc1O", "ASSAYED_SYSTEM": "CAKI-1 renal", "TGI": "> 100 µM"}
{"COMPOUND": "O=c1oc2ccccc2cc1/C=N/N1C(=S)N(c2ccccc2)C(=Nc2ccccc2)C1=Nc1ccccc1", "ASSAYED_SYSTEM": "CAKI-1 renal", "TGI": "> 100 µM"}
{"COMPOUND": "C#CCOCC12C=CC(O1)C1C(=O)N(C)C(=O)C12 (configuration not stated)", "ASSAYED_SYSTEM": "CAKI-1 renal", "TGI": "> 100 µM"}
{"COMPOUND": "COc1ccc(OC)c(NC(=O)CCC/C(CC(=O)c2ccc(O)c(OC)c2)=N\\NC(=O)C[N+](C)(C)C)c1", "ASSAYED_SYSTEM": "CAKI-1 renal", "TGI": "> 100 µM"}
{"COMPOUND": "O=C1C2CC=CCC2C(=O)N1n1c(-c2ccccc2)n[nH]c1=O (configuration not stated)", "ASSAYED_SYSTEM": "CAKI-1 renal", "TGI": "> 100 µM"}
{"COMPOUND": "O=S(=O)(Sc1ccc(Cl)cc1)c1ccc(Cl)cc1", "ASSAYED_SYSTEM": "CAKI-1 renal", "TGI": "40.5 µM"}
{"COMPOUND": "C=Cc1c(C)c(OC)cc2c1Oc1ccc(OC)c(C)c1CC2", "ASSAYED_SYSTEM": "CAKI-1 renal", "TGI": "> 100 µM"}
{"COMPOUND": "Cc1ccc(-c2nc3ccc(Cl)cc3[nH]2)cc1", "ASSAYED_SYSTEM": "CAKI-1 renal", "TGI": "> 100 µM"}
{"COMPOUND": "CC(C)[C@@H]1NC(=O)[C@H]2N=C(O[C@@H]2C)[C@@H]2CCCN2C(=O)[C@H](Cc2ccccc2)NC(=O)[C@@H]2CSC(=N2)[C@@H](Cc2ccccc2)NC(=O)[C@@H]2CSC1=N2", "ASSAYED_SYSTEM": "CAKI-1 renal", "TGI": "> 50 µM"}
{"COMPOUND": "Fc1ccc2nc3n(c2c1)C(c1c(F)cccc1F)SC3 (configuration not stated)", "ASSAYED_SYSTEM": "CAKI-1 renal", "TGI": "> 100 µM"}
{"COMPOUND": "CCCn1c(C)nc2c1C(=O)c1ccccc1C2=O", "ASSAYED_SYSTEM": "CAKI-1 renal", "TGI": "42.4 µM"}

====

- System: CAKI-1 renal
- EXPERIMENT: NCI tumour cell line growth inhibition, 48 h

{"COMPOUND": "COc1ccc(-c2cc(-c3ccccc3)nc(SCCCC(=O)NO)n2)cc1", "ASSAYED_SYSTEM": "CAKI-1 renal", "TGI": "1.45 µM"}
{"COMPOUND": "COc1nc2c(c(=O)n1C)N(C(C)=O)C1C(N2)OCC(OC(C)=O)C1OC(C)=O (stereo unspecified)", "ASSAYED_SYSTEM": "CAKI-1 renal", "TGI": "> 10 µM"}
{"COMPOUND": "COC1CC(OS(=O)(=O)c2ccc(C)cc2)C(OC(=O)c2ccccc2)C(C)O1 (stereo unspecified)", "ASSAYED_SYSTEM": "CAKI-1 renal", "TGI": "> 100 µM"}
{"COMPOUND": "Cc1ccc(C2=NOC3=c4ccccc4=CSC3=C2c2ccc([N+](=O)[O-])cc2)cc1", "ASSAYED_SYSTEM": "CAKI-1 renal", "TGI": "46.8 µM"}
{"COMPOUND": "CC12CCC(C(=O)OC1=O)C(C)(C)O2 (stereo unspecified)", "ASSAYED_SYSTEM": "CAKI-1 renal", "TGI": "> 100 µM"}
{"COMPOUND": "CC1C(c2ccccc2)OP(=O)(OC(C#N)c2ccccc2)N1C (stereo unspecified)", "ASSAYED_SYSTEM": "CAKI-1 renal", "TGI": "> 100 µM"}
{"COMPOUND": "CSCC1CC(c2ccc(Cl)cc2)=NO1 (stereo unspecified)", "ASSAYED_SYSTEM": "CAKI-1 renal", "TGI": "> 100 µM"}
{"COMPOUND": "CCC(NC(C)c1ccccc1)C(O)c1ccc(OCc2ccccc2)c(OCc2ccccc2)c1 (stereo unspecified)", "ASSAYED_SYSTEM": "CAKI-1 renal", "TGI": "24.4 µM"}
{"COMPOUND": "CC(=O)NC1=C(OS(=O)(=O)c2ccc(C)cc2)CN(C)C1=O", "ASSAYED_SYSTEM": "CAKI-1 renal", "TGI": "14 µM"}
{"COMPOUND": "COc1cccc(NC(=O)c2sc3nc4c(cc3c2N)CN(Cc2ccccc2)CC4)c1", "ASSAYED_SYSTEM": "CAKI-1 renal", "TGI": "> 100 µM"}
{"COMPOUND": "COc1ccc(N2C(=O)C3c4[nH]c5c(C)cccc5c4C4CCC(C(C)(C)C)CC4C3C2=O)cc1 (stereo unspecified)", "ASSAYED_SYSTEM": "CAKI-1 renal", "TGI": "> 10 µM"}
{"COMPOUND": "NC(=O)CCCC(NCc1c2ccccc2nc2ccccc12)C(=O)O (stereo unspecified)", "ASSAYED_SYSTEM": "CAKI-1 renal", "TGI": "96.2 µM"}
{"COMPOUND": "CNC(=O)OCc1c(COC(=O)NC)c(C)n(-c2ccc(Br)cc2)c1C", "ASSAYED_SYSTEM": "CAKI-1 renal", "TGI": "> 100 µM"}
{"COMPOUND": "Brc1cccc(C2SCc3nc4ccccc4n32)c1 (stereo unspecified)", "ASSAYED_SYSTEM": "CAKI-1 renal", "TGI": "> 100 µM"}
{"COMPOUND": "CN(C(=O)Cc1cc(Cl)c(Cl)cc1N=C=S)[C@H]1CCCC[C@@H]1N1CCCC1", "ASSAYED_SYSTEM": "CAKI-1 renal", "TGI": "29.2 µM"}
{"COMPOUND": "CC1=NN(c2ccccc2)C(=O)/C1=C/c1ccc(O)cc1", "ASSAYED_SYSTEM": "CAKI-1 renal", "TGI": "> 100 µM"}
{"COMPOUND": "Cc1cc(N/N=C/c2nc(-c3ccc(Br)cc3)oc2C)c2cc(Cl)ccc2n1", "ASSAYED_SYSTEM": "CAKI-1 renal", "TGI": "> 100 µM"}
{"COMPOUND": "CN(CCO)c1nc2c(c(=O)[nH]1)CCC2", "ASSAYED_SYSTEM": "CAKI-1 renal", "TGI": "> 100 µM"}
{"COMPOUND": "O=NC1C(Cl)C2CC1C1C(Br)C(Br)CC21 (stereo unspecified)", "ASSAYED_SYSTEM": "CAKI-1 renal", "TGI": "> 100 µM"}
{"COMPOUND": "C=C1CC2OC2(C(=O)O[C@H]2CCC3[C@@H]4CCC5=CC(=O)CC[C@]5(C)C4CC[C@@]32C)C1=O (stereo partly specified)", "ASSAYED_SYSTEM": "CAKI-1 renal", "TGI": "25 µM"}
{"COMPOUND": "c1ccc(SC(CCCCC(Sc2ccccc2)Sc2ccccc2)Sc2ccccc2)cc1", "ASSAYED_SYSTEM": "CAKI-1 renal", "TGI": "> 100 µM"}
